# systemUnderTest: MNK1 (Homo sapiens, UniProt Q9BUB5)
# Sequence (Q9BUB5 whole entry): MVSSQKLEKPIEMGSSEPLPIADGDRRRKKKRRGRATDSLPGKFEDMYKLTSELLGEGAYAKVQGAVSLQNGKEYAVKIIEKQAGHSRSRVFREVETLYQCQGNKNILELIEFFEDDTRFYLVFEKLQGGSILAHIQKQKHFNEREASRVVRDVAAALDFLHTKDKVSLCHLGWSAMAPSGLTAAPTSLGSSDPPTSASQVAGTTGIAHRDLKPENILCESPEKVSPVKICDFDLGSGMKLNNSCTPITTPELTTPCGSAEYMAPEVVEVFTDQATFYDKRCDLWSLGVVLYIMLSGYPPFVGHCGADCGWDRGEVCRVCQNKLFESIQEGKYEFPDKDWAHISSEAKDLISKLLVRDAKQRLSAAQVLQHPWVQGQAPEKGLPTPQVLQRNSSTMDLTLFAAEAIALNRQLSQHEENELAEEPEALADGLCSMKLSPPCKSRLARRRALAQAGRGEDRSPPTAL
# procedureText: MNK inhibition assay (Z-Lyte kinase assay, Ser/Thr 7 peptide)
# recordedConditions: recombinant GST-MNK1, 3 hours at 31° C.
Measured IC50, listed per entry.
Respond numerically; units are nM and should not be typed.

Use these answered entries as a reference point.
> print(dat)
                                querysmiles  assayvalue
1  COc1cc(O[C@H]2CC[C@H](N)CC2)cc2c(-c3cc4ccccc4o3)cnc(N)c12         211
2  Nc1ncc(-c2cccs2)c2cc(CN3CCC(N)CC3)cc(Cl)c12         142
3  NC(=O)Nc1cccc(-c2cncc3ccc(CN4CCC(N)CC4)cc23)c1        1090
4  Nc1ncc(-c2ccccc2)c2cc(N[C@H]3CC[C@H](N)CC3)cc(Cl)c12         171
5  CN1CCN(Cc2ccc3cncc(-c4cc5ccccc5o4)c3c2)CC1        1120
6      NC1CCN(Cc2ccc3cncc(-c4cccs4)c3c2)CC1         154

Measured IC50 of `COc1cc(CN2CCC(N)CC2)cc2c(-c3ccc(Cl)cc3)cncc12` : 241

IC50 reading for `Nc1ncc(-c2ccc(Cl)cc2)c2cc(CN3CCC(N)CC3)ccc12` : 473

Data point: `Nc1ncc(-c2ccccc2)c2cc(O[C@H]3CC[C@H](N)CC3)ccc12` ; IC50 = 153

====

# systemUnderTest: MNK1 (Homo sapiens, UniProt Q9BUB5)
# Construct: purchased Life Technologies or Carna Biosciences PV6023 or 02-145; host or cells: baculovirus infected insect cells
# procedureText: MNK inhibition assay (Z-Lyte kinase assay, Ser/Thr 7 peptide)
# Format: biochemical
# recordedConditions: at 1 μM; read-out: Inhibition of MNK1 activity at indicated concentration
Collected inhibition at 1 µM values appear next to each entry.
Field: numeric (%). Do not append units.

Entry NC(=O)c1ccc(-c2cncc3ccc(CN4CCC(N)CC4)cc23)cc1 [Example 20] — recorded inhibition at 1 µM = 45

Note to self: inhibition at 1 µM recorded for NCCCOCc1ccc2c(N)ncc(-c3ccc(NC(=O)Nc4ccccc4)cc3)c2c1 [Example 112] was 19

Short answer for CC(=O)Nc1cccc(-c2cncc3ccc(CN4CCC(N)CC4)cc23)c1 [Example 19] : inhibition at 1 µM was 39

// field: inhibition at 1 µM; key: NCc1cccc(-c2cncc3ccc(CN4CCC(N)CC4)cc23)c1 [Example 184] ; value = 35

// sample Oc1ccc(-c2cncc3ccc(CN4CCOCC4)cc23)cc1 [Example 26] , its inhibition at 1 µM was 40

Given item NCCCCNCc1ccc2cncc(-c3ccc(O)cc3)c2c1 [Example 35] , the value recorded as its inhibition at 1 µM is 56

====

Form field: IC50 (one value per entry).
# systemUnderTest: MNK1 (Homo sapiens, UniProt Q9BUB5)
# procedureText: MNK inhibition assay (Z-Lyte kinase assay, Ser/Thr 7 peptide)
# recordedConditions: recombinant GST-MNK1, 3 hours at 31° C.
Record the value in nM, omitting the unit from your answer.

// below: answered compounds
> print(dat)
                                   compound  measurementunit  assayvalue
1  FC(F)(F)c1cnccc1NCc1ccc2cncc(-c3cc4ccccc4o3)c2c1               nM        1130
2     NC1CCN(Cc2ccc3cncc(-c4ccccn4)c3c2)CC1               nM        3960
3  COc1cc(O[C@H]2CC[C@H](N)CC2)cc2c(-c3ccccc3)cncc12               nM          55

Lookup result for `N[C@H]1CC[C@H](Nc2cc(Cl)c3cncc(-c4cc5ccccc5o4)c3c2)CC1` ; measured IC50: 180

`NC1CCN(Cc2ccc3cncc(-c4ccc5occc5c4)c3c2)CC1` yielded IC50 of 270

IC50 measured on `NC1CCN(Cc2ccc3cncc(-c4ccncc4)c3c2)CC1` = 285

For reference, reported IC50 for `NC1CCN(Cc2cc(Cl)c3cncc(-c4ccco4)c3c2)CC1` stands at 100

Documented IC50 of Oc1ccc(-c2cncc3ccc(CNC4CCNC4)cc23)cc1 (stereo not drawn) : 254

Notebook: `Cc1ccc(-c2cncc3ccc(CN4CCNCC4)cc23)o1` , IC50 read as 229

Values from patent US20200031811A1
